Sourced from PubChem BioAssay (NCI)

Below, each entry is listed alongside its reported growth.
Test system: NCI-H226 lung
Protocol Text: NCI-60 one-dose screen, 48 h (100 = growth as untreated, 0 = no growth, -100 = all killed)
Experimental Context: 10 µM unless noted
Compounds without any hit were thinned out: in the full panel of roughly 83,000, 20% have a hit.
Report the figure in % without appending any unit label.

Documented growth of CC(C)n1nc(C#Cc2cccc3cc(-c4cccc(C(F)(F)F)c4)ncc23)c2c(N)ncnc21 : 48.2

Summary for this molecule, COc1ccc(OC)c(Nc2nc3nonc3nc2Nc2cc(OC)ccc2OC)c1 : growth is 50.3

// growth lookup, molecule = OC(COc1cccc2ccccc12)CN1CCN(c2ccccc2)CC1 (stereo unspecified) , result: 99.1
